The reported measurements were obtained from patent US5006522A.

Target or system muscarinic receptors (submandibular gland) (Rattus norvegicus, UniProt P08483): recorded IC50 listed per item.
Answer in nM, number only, no unit symbol.

Input: Entry under review: CCN(CC)CC1CCCCN1CCCCN1c2ccccc2C(=O)Nc2cccnc21 (stereo not drawn) [B] . Reported IC50?
Output: 80

Input: Entry under review: CCN(CC)CC1CCCCN1CC#CCN1c2ccccc2C(=O)Nc2cccnc21 (stereo not drawn) [C] . Reported IC50?
Output: 700

Input: Entry under review: O=C1Nc2cccnc2N(CCCCCCN2CCCCC2)c2ccccc21 [A] . Reported IC50?
Output: 10

====

# System: acetylcholine effect on heart rate
# Assay Overview: Inhibition of the effect of acetylcholine on heart rate in guinea pigs
# Type: in vivo
# Reported Conditions: Cavia porcellus, iv, 5 min; guinea pig, acetylcholine 10 microgram/kg i.v. and i.a., 5 min after substance; read-out: -log ED50, Heart (heart rate) (converted)
Attribute Measured: ED50 (µmol/kg)
Answer in µmol/kg, number only, no unit symbol.

Input: Entry under review: CN1[C@@H]2CC[C@H]1C[C@@H](OC(=O)C(CO)c1ccccc1)C2 (stereo partly shown) [F, atropine, reference compound] . Reported ED50?
Output: 0.02

Input: Entry under review: CCN(CC)CC1CCCCN1CC#CCN1c2ccccc2C(=O)Nc2cccnc21 (stereo not shown) . Reported ED50?
Output: 0.245

Input: Entry under review: O=C1Nc2cccnc2N(CCCCCCN2CCCCC2)c2ccccc21 . Reported ED50?
Output: 0.0661

Input: Entry under review: CCN(CC)CC1CCCCN1CCCCN1c2ccccc2C(=O)Nc2cccnc21 (stereo not shown) . Reported ED50?
Output: 0.468
